molecular target: T1, human MSLN-FL-his protein (human, UniProt Q13421 296-580); assay: competitive ELISA; row F8-5.15; further: test concentration or dose not given here
T1 construct: made in HEK293E cells, purified on nickel column; also called hMSLN-FL-his; human MSLN full-length protein; not shown: His tag
T1 sequence (Q13421 other isoform, or with tags, fused parts or gaps): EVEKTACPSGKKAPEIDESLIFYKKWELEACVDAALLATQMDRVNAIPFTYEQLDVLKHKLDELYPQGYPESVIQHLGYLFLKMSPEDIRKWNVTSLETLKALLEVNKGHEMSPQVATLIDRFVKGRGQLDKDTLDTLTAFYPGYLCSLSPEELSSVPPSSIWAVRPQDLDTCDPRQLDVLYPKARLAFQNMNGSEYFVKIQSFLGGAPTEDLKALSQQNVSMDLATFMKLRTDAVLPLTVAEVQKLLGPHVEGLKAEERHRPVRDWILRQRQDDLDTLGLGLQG
assay_metric: competition rate (%)
Just the number in %, nothing appended.

Below, each entry is followed by its recorded competition rate result.
binder	readout_unit	competition rate
S009-F8-19.21 (antibody, human IgG1, kappa, V domains shown, human-murine chimeric antibody, human IgG1/kappa constant regions) VH: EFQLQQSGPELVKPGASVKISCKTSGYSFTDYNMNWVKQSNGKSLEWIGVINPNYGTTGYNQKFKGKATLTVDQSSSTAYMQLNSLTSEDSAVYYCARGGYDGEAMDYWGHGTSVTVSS VL: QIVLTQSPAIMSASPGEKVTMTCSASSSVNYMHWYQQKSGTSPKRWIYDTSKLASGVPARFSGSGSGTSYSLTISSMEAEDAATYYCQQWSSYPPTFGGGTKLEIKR	%	99.5
S009-F8-7.5 (antibody, human IgG1, kappa, V domains shown, human-murine chimeric antibody, human IgG1/kappa constant regions) VH: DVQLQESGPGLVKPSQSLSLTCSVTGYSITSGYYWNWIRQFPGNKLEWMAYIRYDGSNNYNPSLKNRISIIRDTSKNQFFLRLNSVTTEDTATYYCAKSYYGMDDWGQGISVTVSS VL: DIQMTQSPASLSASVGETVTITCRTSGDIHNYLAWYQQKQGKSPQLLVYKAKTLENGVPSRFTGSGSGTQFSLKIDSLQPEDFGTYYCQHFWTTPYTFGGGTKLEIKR	%	83.3

Next:
Value of competition rate reported for the binder S009-F8-5.15 (antibody, human IgG1, kappa, V domains shown, human-murine chimeric antibody, human IgG1/kappa constant regions) VH: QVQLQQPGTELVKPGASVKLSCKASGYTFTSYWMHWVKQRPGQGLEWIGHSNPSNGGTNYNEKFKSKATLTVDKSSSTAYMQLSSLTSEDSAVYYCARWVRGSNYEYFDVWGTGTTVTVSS VL: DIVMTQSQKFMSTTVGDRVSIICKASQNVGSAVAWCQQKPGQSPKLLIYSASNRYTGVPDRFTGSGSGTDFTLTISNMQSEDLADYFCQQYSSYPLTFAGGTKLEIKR is 96.8
